Source: patent US20110097323A1

MEASUREMENT TARGET: CD16A F158 (human, UniProt P08637 17-208, limits assumed)
Sequence (P08637 17-208 limits assumed): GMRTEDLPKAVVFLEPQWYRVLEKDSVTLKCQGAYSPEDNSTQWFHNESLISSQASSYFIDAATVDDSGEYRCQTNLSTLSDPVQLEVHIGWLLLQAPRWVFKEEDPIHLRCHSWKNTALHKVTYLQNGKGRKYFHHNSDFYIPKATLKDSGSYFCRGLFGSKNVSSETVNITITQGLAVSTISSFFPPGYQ
ASSAY TEXT: Table 3; relative to wild-type Fc; method not stated
PROPERTY NAME: binding relative to wild-type Fc (fold)

Fc variant D270E G316D P396L R416G (other, UniProt P01857-1 99-330, looked up, name in EU numbering, domain: Fc region; positions are EU index; also called D270E P396L G316D R416G) EPKSCDKTHTCPPCPAPELLGGPSVFLFPPKPKDTLMISRTPEVTCVVVDVSHEEPEVKFNWYVDGVEVHNAKTKPREEQYNSTYRVVSVLTVLHQDWLNDKEYKCKVSNKALPAPIEKTISKAKGQPREPQVYTLPPSRDELTKNQVSLTCLVKGFYPSDIAVEWESNGQPENNYKTTPLVLDSDGSFFLYSKLTVDKSGWQQGNVFSCSVMHEALHNHYTQKSLSLSPGK ... 0.94
Fc variant R255L D270E Y300L P396L (other, UniProt P01857-1 99-330, looked up, name in EU numbering, domain: Fc region; positions are EU index) EPKSCDKTHTCPPCPAPELLGGPSVFLFPPKPKDTLMISLTPEVTCVVVDVSHEEPEVKFNWYVDGVEVHNAKTKPREEQYNSTLRVVSVLTVLHQDWLNGKEYKCKVSNKALPAPIEKTISKAKGQPREPQVYTLPPSRDELTKNQVSLTCLVKGFYPSDIAVEWESNGQPENNYKTTPLVLDSDGSFFLYSKLTVDKSRWQQGNVFSCSVMHEALHNHYTQKSLSLSPGK ... 1.74
Fc variant F243L D270E G316D R416G (other, UniProt P01857-1 99-330, looked up, name in EU numbering, domain: Fc region; positions are EU index) EPKSCDKTHTCPPCPAPELLGGPSVFLLPPKPKDTLMISRTPEVTCVVVDVSHEEPEVKFNWYVDGVEVHNAKTKPREEQYNSTYRVVSVLTVLHQDWLNDKEYKCKVSNKALPAPIEKTISKAKGQPREPQVYTLPPSRDELTKNQVSLTCLVKGFYPSDIAVEWESNGQPENNYKTTPPVLDSDGSFFLYSKLTVDKSGWQQGNVFSCSVMHEALHNHYTQKSLSLSPGK ... 1.34
